This collection of values is drawn from ChEMBL document CHEMBL1909577.

assay.notes: AUC (0 to 8 hrs) in Balb/C mouse at 10 umol/kg, po
Type: ADME, organism-based
Set-up: time < 8 hr, dose 10 umol/kg, route oral
assay.context: plasma
assay.endpoint: AUC(0-t) at 8 h (µM·h)

Task: For the compound "N#Cc1c(O)nc(SCc2ccccc2Cl)c2cc(F)ccc12" , what AUC(0-t) at 8 h is on record?
Output: 15

a. N#Cc1c(O)nc(SCc2ccccc2Cl)c2c1CCCC2
b. N#Cc1c(O)nc(SCc2ccccc2Cl)nc1-c1ccccc1
c. N#Cc1c(=O)[nH]c(OCc2ccccc2Cl)c2cc(F)ccc12
d. N#Cc1ncccc1CSc1nc(O)c(C#N)c2c1COCC2
Task: Place the items in sequence of falling AUC(0-t) at 8 h. Your reply should list the labels following the order given in the request.
Output: b, c, d, a

* * *

assay.notes: Aqueous solubility of the compound
Assay type: physicochemical
assay.endpoint: solubility (µg/mL)

Below are worked cases with known answers.
Task: solubility for "N#Cc1c(O)nc(SCc2ccc(Cl)cc2)c2c1CCCC2" ?
Output: 1

Task: Name the reported solubility value associated with the compound "N#Cc1c(O)nc(SCc2ccccc2Cl)c2c1CCOC2"
Output: 8

A. N#Cc1c(O)nc(OCc2ccccc2Cl)c2c1CCCC2
B. CS(=O)(=O)c1ccccc1CSc1nc(O)c(C#N)c2c1CCCC2
C. N#Cc1ccccc1CSc1nc(O)c(C#N)c2c1CCCC2
D. N#Cc1ncccc1CSc1nc(O)c(C#N)c2ccc(F)cc12
Task: Order the 4 compounds from highest to lowest solubility. Order the labels as requested and list them.
Output: B, C, D, A

* * *

assay.notes: Cmax in Balb/C mouse at 10 umol/kg, po
Format: ADME, organism-based
Set-up: dose 10 umol/kg, route oral
assay.context: in vivo
assay.endpoint: Cmax (nM)

Field: example entries. Status: answers known.
Task: Please give the measured Cmax for this compound: "N#Cc1c(O)nc(SCc2ccccc2Cl)nc1-c1ccccc1"
Output: 7100

Task: Cmax lookup needed for "N#Cc1c(O)nc(SCc2ccccc2Cl)c2cc(F)ccc12" , thanks.
Output: 2900

a. N#Cc1ncccc1CSc1nc(O)c(C#N)c2c1COCC2
b. N#Cc1c(=O)[nH]c(OCc2ccccc2Cl)c2cc(F)ccc12
c. N#Cc1c(O)nc(SCc2ccccc2Cl)c2c1CCCC2
Task: Order the records so the highest Cmax appears first and the lowest last. In your reply, arrange the labels in the requested order.
Output: b, a, c
(b: 2300 nM, a: 500 nM, c: 30 nM)

* * *

Tested on: UDP-glucuronosyltransferase (Mus musculus)
assay.notes: in vitro
assay.context: human, liver microsomes
assay.endpoint: half-life

Task: Notebook: pull reported half-life for UDP-glucuronosyltransferase (Mus musculus), entry "N#Cc1ncccc1CSc1nc(O)c(C#N)c2c1COCC2"
Output: 3 min

Task: Look up half-life with UDP-glucuronosyltransferase (Mus musculus) for this molecule: "N#Cc1c(O)nc(SCc2ccccc2Cl)c2c1CCCC2"
Output: < 1 min

Here is the next item to consider.
Task: Which measured half-life belongs to "N#Cc1c(O)nc(SCc2ccccc2Cl)nc1-c1ccccc1" , tested on UDP-glucuronosyltransferase (Mus musculus)?
Output: > 200 min

* * *

Tested on: Liver
assay.context: mouse, microsomes, 10 min, 300 µM
Description: Metabolic stability of the compound in mouse liver microsomes assessed as stability rate per mg of protein at 300 uM after 10 mins by LC-MS/MS analysis in presence of NADPH
assay.endpoint: Stability (nmol/min)

The cases that follow already have their Stability on record.
Task: Quick one: Stability of "N#Cc1ncccc1CSc1nc(O)c(C#N)c2c1COCC2" ?
Output: 0.01

Task: Value lookup for Stability; key = "N#Cc1c(O)nc(SCc2ccccc2Cl)c2cccc(F)c12"
Output: 0.08

Task: Need Stability, item "N#Cc1c(O)nc(SCc2ccccc2Cl)c2ccccc12"
Output: 0.2

Task: Tell me the measured Stability of "N#Cc1c2c(c(SCc3c(Cl)cccc3Cl)[nH]c1=O)CCCC2" , please.
Output: 0

Task: For "N#Cc1c(O)nc(SCCc2ccccc2Cl)c2c1CCCC2" , what is its reported Stability?
Output: 0.27

Task: Quick one: Stability of "N#Cc1c(O)nc(SCC2CCC2)c2c1CCCC2" ?
Output: 0.16

Task: For the molecule shown here, "N#Cc1c(O)nc(SCc2ccccc2Cl)c2c1CCOC2" , give the reported Stability.
Output: 0.07

Task: Would you mind telling me what Stability value was observed for "N#Cc1c(O)nc(SCc2ccccc2)c2c1-c1ccccc1CC2" ?
Output: 0

a. N#Cc1c(O)nc(SCc2ccccc2Cl)c2c1CCN(Cc1ccccc1)C2
b. N#Cc1c(=O)[nH]c(OCc2ccccc2Cl)c2cc(F)ccc12
Task: Hey, between a and b which has a smaller measured Stability? Could you answer with the label of the item you picked?
Output: b
